Data provenance is PubChem BioAssay AID485344.

# experimental.target: D(2) dopamine receptor (Homo sapiens)
# assay.details: HTS Assay for Allosteric Antagonists of the Human D2 Dopamine Receptor: Primary Screen for Antagonists
# run.conditions: HEK293 TREx D2 cells, calcium flux, dopamine EC80; at 10 µM; stronger effect = higher value
# Experimental: NIH Chemical Genomics Center [NCGC] NIH Molecular Libraries Probe Centers Network [MLPCN] […] Freshly passaged cells are plated in 1536 well black, clear bottom plates at a density of 4000 cells/well in 3 ul of complete media containing 1x tetracycline inducer. […] Agonist read: A 10 cycle (1 second/cycle) baseline measurement is taken and then the FDSS online 1536 pintool delivers 23 nl of compound library (as well as dopamine controls) to the plate. […]
The whole screen tested about 340,000 compounds, of which about 6,900 (2%) were called active. The list comes from a sample in which actives are over-represented; it also holds close analogues and randomly drawn compounds.
quantity.kind: inhibition (%)
Could you give me the number in %? Just the number is fine.

Known results for molecules:
molecule	experimental.target	result.unit	experimental.result
COC(=O)c1cccc(NC(=O)c2cccc(N3C(=O)CCC3=O)c2)c1	D(2) dopamine receptor (Homo sapiens)	%	0.805
C=CCN1C(=O)C(O)(CC(=O)c2ccc(Cl)cc2)c2ccccc21 (stereo not drawn)	D(2) dopamine receptor (Homo sapiens)	%	0.63
O=C(OCC(=O)N1CCOCC1)c1ccc2ccccc2c1	D(2) dopamine receptor (Homo sapiens)	%	-1.03
COC(=O)c1ccc(CSc2nnc(N)s2)o1	D(2) dopamine receptor (Homo sapiens)	%	-17.4
Cc1ccc(S(=O)(=O)CCC(=O)Nc2nnc(CC(C)C)s2)cc1	D(2) dopamine receptor (Homo sapiens)	%	-13.3

Give recorded inhibition. Cc1ccn2cc(C(=O)NC3CCN(Cc4ccccc4)CC3)nc2c1
15.3

Respond only with inhibition recorded for Cc1ccc(CN2CCCOCCS2(=O)=O)cc1
-5.42

Let me know recorded inhibition for CC(C)Cc1nnc(NC(=O)CCNC(=O)c2ccccc2Cl)s1 , thanks.
-3.78

Supply recorded inhibition for Cc1cc(C(=O)NC2CC(C)(C)Cc3c2cnn3-c2ccccc2)n[nH]1 (stereo not drawn) here.
-16

Respond only with inhibition recorded for CCOc1ccc(C(=O)CCC(=O)Nc2ccncc2)cc1
-7.41

Return inhibition for the following molecule: CN(CC(=O)Nc1ccc(F)cc1)CC(=O)N1CCCCC1
-7.3

For the molecule O=C(CC1(O)C(=O)N(CN2CCOCC2)c2ccccc21)c1ccccc1 (stereo not drawn) , give its measured inhibition value.
30.3

* * *

# experimental.target: D(2) dopamine receptor (Homo sapiens)
# assay.details: HTS Assay for Allosteric Antagonists of the Human D2 Dopamine Receptor: Primary Screen for Antagonists
# run.conditions: HEK293 TREx D2 cells, calcium flux, dopamine EC80; at 10 µM; stronger effect = higher value
Out of some 340,000 compounds screened, about 6,900 (2%) were called active. Many of the other results were omitted from the sample, so actives are more common in it than they were.
quantity.kind: inhibition

Completed entries (count: 4):
compound	experimental.result
Cc1ccc(S(=O)(=O)Oc2ccc(/C=N/NC(=O)c3ccncc3)cc2)cc1	-6.29% (inactive)
O=C(Nc1ncccc1O)c1ccc(S(=O)(=O)N2CCCC2)cc1	-6.12% (inactive)
Cc1ccc(NC(=O)CC2S/C(=N/N=C3\CCCc4ccccc43)NC2=O)cc1 (stereo not given)	-3.76% (inactive)
COc1ccc(N2CCN(Cc3ccc(Br)s3)CC2)cc1	-12.7% (inactive)

Pending compound:
Provide only the value of recorded inhibition for CC(=O)Nc1ccc(S(=O)(=O)Oc2ccc(/C=N/N=C3/NC(=O)C(CC(=O)O)S3)cc2)cc1 (stereo not given)
35.4% (active)

* * *

# experimental.target: D(2) dopamine receptor (Homo sapiens) (UniProt P14416)
# Sequence (P14416 whole entry, looked up): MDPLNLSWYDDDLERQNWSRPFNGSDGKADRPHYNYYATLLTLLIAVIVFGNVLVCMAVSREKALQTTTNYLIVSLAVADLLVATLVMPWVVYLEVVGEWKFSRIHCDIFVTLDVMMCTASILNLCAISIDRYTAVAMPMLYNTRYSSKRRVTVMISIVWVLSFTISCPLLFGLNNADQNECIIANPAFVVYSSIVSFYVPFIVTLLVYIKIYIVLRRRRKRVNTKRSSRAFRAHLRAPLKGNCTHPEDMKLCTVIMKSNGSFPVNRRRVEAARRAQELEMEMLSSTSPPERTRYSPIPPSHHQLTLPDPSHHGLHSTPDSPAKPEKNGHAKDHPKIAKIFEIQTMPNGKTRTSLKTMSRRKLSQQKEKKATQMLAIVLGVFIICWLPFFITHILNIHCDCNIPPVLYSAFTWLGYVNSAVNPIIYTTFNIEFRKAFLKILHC
# assay.details: HTS Assay for Allosteric Antagonists of the Human D2 Dopamine Receptor: Primary Screen for Antagonists
# run.conditions: HEK293 TREx D2 cells, calcium flux, dopamine EC80; at 10 µM; stronger effect = higher value
Hit rate of the full screen: of about 340,000 compounds, about 6,900 (2%) were called active. The sample as a whole holds a higher share of actives than the screen did.
Class (by inhibition) -- class 0: < -10%; class 1: ≥ -10% and < 20%; class 2: ≥ 20%

compound	experimental.target	class.label
CCC(C)C(N=C1NS(=O)(=O)c2ccccc21)C(=O)N1CCC(C)CC1 (stereo not given)	D(2) dopamine receptor (Homo sapiens) (UniProt P14416)	class 1
CC(=O)Nc1ccc(NC(=O)C(C)OC(=O)c2ccccc2C(=O)c2ccc(Cl)c([N+](=O)[O-])c2)cc1 (stereo not given)	D(2) dopamine receptor (Homo sapiens) (UniProt P14416)	class 2
CC(C)(C)C(=O)CSc1ccc(S(=O)(=O)N2CCCC2)cn1	D(2) dopamine receptor (Homo sapiens) (UniProt P14416)	class 1
O=C(c1ccc(Cl)nc1)N1CCN(S(=O)(=O)c2ccc3c(c2)OCCO3)CC1	D(2) dopamine receptor (Homo sapiens) (UniProt P14416)	class 0
COc1cccc(CNC(=O)CCC2CCCN(C(=O)c3ccoc3C)C2)c1 (stereo not given)	D(2) dopamine receptor (Homo sapiens) (UniProt P14416)	class 0
O=C(CSc1ncnc2sccc12)N1CCN(C(=O)c2cccs2)CC1	D(2) dopamine receptor (Homo sapiens) (UniProt P14416)	class 2
Cc1ccccc1C(=O)NCC(c1ccco1)N1CCc2ccccc21 (stereo not given)	D(2) dopamine receptor (Homo sapiens) (UniProt P14416)	class 0

Please look at the following compound next.
Hello team, could you let me know which band the following compound falls into: COc1cccc(CNC(=O)CCC2CCCN(C(=O)c3ccc(F)c(Cl)c3)C2)c1 (stereo not given)
class 1

* * *

# experimental.target: D(2) dopamine receptor (Homo sapiens) (UniProt P14416)
# assay.details: HTS Assay for Allosteric Antagonists of the Human D2 Dopamine Receptor: Primary Screen for Antagonists
# run.conditions: HEK293 TREx D2 cells, calcium flux, dopamine EC80; at 10 µM
Screen size: about 340,000 compounds; about 6,900 (2%) were called active. Cut-off read from the data, not from the text of the source: active = inhibition above about 30%; inactive = below that, where a call was filed. For the sample, actives were picked, then their nearest neighbours and some compounds at random.
Assign a class; possible classes are 1 = active, -1 = inactive

Reference set (3 entries):
compound	class.label
c1ccc(-c2cnc(CN3CCN(c4ccccc4)CC3)o2)cc1	1
O=C(NCCCN1CCN(c2ccccc2F)CC1)C1CCC(=O)N1C1CCCCC1 (stereo not given)	1
CCOc1ccccc1N1CCN(C(=O)COc2ccc3c(C)cc(=O)oc3c2)CC1	-1

Give the logged outcome of this assay for the following compound: O=C(NCCCN1CCCCCC1)C1CC(=O)N(C2CCCC2)C1 (stereo not given)
-1

Assay result, entry O=C(COc1coc(CN2CCN(c3ccccc3)CC2)cc1=O)Nc1ccccc1F — outcome?
-1

* * *

# experimental.target: D(2) dopamine receptor (Homo sapiens)
# assay.details: HTS Assay for Allosteric Antagonists of the Human D2 Dopamine Receptor: Primary Screen for Antagonists
# run.conditions: HEK293 TREx D2 cells, calcium flux, dopamine EC80; at 10 µM; stronger effect = higher value
Out of some 340,000 compounds screened, about 6,900 (2%) were called active. This excerpt belongs to a sample that is enriched for actives.
The following compounds are shown together with reported inhibition values.
Numbers only; they are read as %.

Examples from the recorded data:
compound	inhibition [%]
O=C(CN1CCN(C/C=C/c2ccccc2)CC1)Nc1ccc(F)cc1F	6.36
NS(=O)(=O)c1cc(C(=O)OCC(=O)NNC(=O)c2ccccc2)ccc1Cl	2.99

Give recorded inhibition. C[C@@H](NC(=O)c1nc[nH]c1C(=O)N1CCN(C(=O)OC(C)(C)C)CC1)c1ccccc1
4.62

Check the records and state inhibition for COc1cccc(NC(=O)COC(=O)/C=C/c2ccco2)c1
13.2

Note down inhibition recorded for CC(OC(=O)/C=C/c1ccccc1)C(=O)NC1CCCCC1C (stereo not drawn)
-2.14

Quote inhibition reported for CCOc1ncccc1C(=O)Nc1ccc(S(=O)(=O)Nc2nc(C)cc(C)n2)cc1 please.
-33.5

Answer with reported inhibition of CC(C)N(C(=O)CN1CCN(S(=O)(=O)c2ccc(Br)s2)CC1)C(C)C
-1.58

Supply recorded inhibition for Cc1ccc2cc(CCNC(=O)c3c(-c4ccccc4Cl)noc3C)c(=O)[nH]c2c1 here.
34

Identify measured inhibition associated with Cc1ccc(NC(=O)NC(=O)c2ccccc2)cc1F
-2

* * *

# experimental.target: D(2) dopamine receptor (Homo sapiens) (UniProt P14416)
# assay.details: HTS Assay for Allosteric Antagonists of the Human D2 Dopamine Receptor: Primary Screen for Antagonists
# run.conditions: HEK293 TREx D2 cells, calcium flux, dopamine EC80; at 10 µM; stronger effect = higher value
Out of some 340,000 compounds screened, about 6,900 (2%) were called active. Many of the other results were omitted from the sample, so actives are more common in it than they were.
Measured inhibition, listed per entry.
Supply the numeric figure in %, leaving out any unit text.

compound	inhibition [%]
Cc1ccc(C(CC(=O)O)NC(=O)c2ccc(S(=O)(=O)N3CCCC3)cc2)cc1 (configuration not stated)	8.12
CCCN(CC(=O)NC(=O)NC1CCCCC1)CC(=O)Nc1cc(Cl)ccc1Cl	-13.3
CC(C)c1csc(CN2CCC(CO)(Cc3ccccc3)CC2)n1	0.256

For Cc1c(C(=O)NNC(=O)c2ccncc2)oc2ccccc12 , write its inhibition.
13.9

Determine its reported inhibition: O=C(c1ccc2c(c1)OCCO2)C1CCN(S(=O)(=O)c2cccc(F)c2)CC1
61.3

Provide only the value of recorded inhibition for O=C(CSc1ccccc1)Nc1cc(Cl)ccc1Oc1ccccc1
41.8

// Input: CC(NCC(=O)Nc1ccccc1C(=O)NC1CC1)c1ccccc1Cl (configuration not stated) . Output its inhibition only.
26.6

Answer with the recorded inhibition of O=C(c1c(F)cccc1F)N1CCN(S(=O)(=O)c2ccc3c(c2)OCCO3)CC1 only.
8.79

Respond only with inhibition recorded for O=C(Nc1ccccn1)C1CCN(S(=O)(=O)c2ccc3c(c2)OCCO3)CC1
-2.31
